Biological target: C5aR (Homo sapiens, UniProt P21730)
Construct: U937 cells are a monocytic cell line which express C5aR
Sequence (P21730 1-350): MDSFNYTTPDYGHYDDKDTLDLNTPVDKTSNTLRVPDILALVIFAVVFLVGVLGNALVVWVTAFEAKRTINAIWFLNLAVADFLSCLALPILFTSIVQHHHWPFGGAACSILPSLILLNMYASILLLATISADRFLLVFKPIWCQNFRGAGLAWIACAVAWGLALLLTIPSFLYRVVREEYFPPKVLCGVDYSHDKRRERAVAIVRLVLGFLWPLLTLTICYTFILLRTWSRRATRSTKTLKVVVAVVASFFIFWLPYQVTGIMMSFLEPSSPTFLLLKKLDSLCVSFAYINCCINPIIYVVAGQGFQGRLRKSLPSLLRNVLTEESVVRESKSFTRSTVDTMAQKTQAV
Assay: Chemotaxis assay using U937 cells (C5a-induced migration)
Conditions: chemotaxis (migration) of U937 cells towards C5a; read-out: Mig IC50
MEASURED QUANTITY: IC50

SUBSTANCE SMILES	TGT	IC50
Cc1ccc(C(C)(C)C)cc1N1Cc2nn(-c3c(C)cccc3C)c(-c3ccc(N)cc3)c2C1	C5aR (Homo sapiens, UniProt P21730)	< 5 nM
Cc1cccc(C)c1-n1nc2c(c1-c1ccc(C(N)=O)cc1)CN(C(=O)NC(C)(C)C)C2	C5aR (Homo sapiens, UniProt P21730)	> 500 nM
COc1cccc(C)c1-n1nc2c(c1-c1ccc(NC(N)=O)cc1)CN(c1cc(C(C)(C)C)ccc1C)C2	C5aR (Homo sapiens, UniProt P21730)	> 500 nM
CCc1cccc(CC)c1-n1nc2c(c1-c1ccc(C(N)=O)c(F)c1)CN(Cc1ccc(C(F)(F)F)cc1C(F)(F)F)C2(C)C	C5aR (Homo sapiens, UniProt P21730)	> 500 nM

Then this compound:
[ask] Dear colleague, I am looking for the recorded IC50 of the following compound: Cc1ccc(C(C)(C)C)cc1N1Cc2nn(-c3c(C)cccc3OCC(C)C)c(-c3ccc(C(N)=O)cc3)c2C1
[reply] < 5 nM

* * *

Measured pIC50 of individual entries
Molecular target: C5aR (Homo sapiens, UniProt P21730)
Construct: U937 cells are a monocytic cell line which express C5aR
Sequence (P21730 1-350): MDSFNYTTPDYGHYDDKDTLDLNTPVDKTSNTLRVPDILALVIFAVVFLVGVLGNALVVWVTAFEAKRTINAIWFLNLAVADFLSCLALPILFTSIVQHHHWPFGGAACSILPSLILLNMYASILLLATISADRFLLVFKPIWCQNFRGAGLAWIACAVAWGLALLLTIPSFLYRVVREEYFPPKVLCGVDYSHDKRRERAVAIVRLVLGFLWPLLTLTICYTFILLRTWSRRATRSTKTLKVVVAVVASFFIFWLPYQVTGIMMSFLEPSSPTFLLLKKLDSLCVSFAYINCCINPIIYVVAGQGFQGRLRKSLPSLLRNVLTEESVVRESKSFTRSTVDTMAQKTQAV
Test: Chemotaxis assay using U937 cells (C5a-induced migration)
Settings: chemotaxis (migration) of U937 cells towards C5a; read-out: Mig IC50
pIC50: −log10 of the molar value.

COMPOUND	pIC50
Cc1cccc(C)c1-n1nc2c(c1-c1cc(F)c(NC(N)=O)cc1F)CN(Cc1ccccc1C(F)(F)F)C2(C)C [Compound 1.006]	> 8.30
Cc1ccc(N2Cc3nn(-c4c(C)cccc4C)c(-c4ccc(C(N)=O)cc4)c3C2)cc1C(F)(F)F [Compound 1.039]	< 6.30
Cc1cccc(C)c1-n1nc2c(c1-c1ccc(C(N)=O)cc1)CN(c1ccc(C(F)(F)F)c(Cl)c1)C2=O [Compound 1.020]	< 6.30
CCc1cccc(CC)c1-n1nc2c(c1-c1cc(F)c(NC(N)=O)cc1F)CN(Cc1cc(C(F)(F)F)ccc1C(F)(F)F)C2(C)C [Compound 1.017]	> 8.30
Cc1cc(F)c(C(C)C)cc1N1Cc2nn(-c3c(C)cccc3C)c(-c3ccc(C(N)=O)cc3)c2C1 [Compound 1.035]	7.30 to 8.30

[ask] Which pIC50 reading was recorded for the compound Cc1cccc(C)c1-n1nc2c(c1-c1ccc(C(N)=O)cc1)CN(C(=O)c1ccccc1)C2 [Compound 1.037] ?
[reply] < 6.30

[ask] For the compound CCc1cccc(CC)c1-n1nc2c(c1-c1cc(F)c(NC(N)=O)cc1F)CN(C(=O)C(C)C)C2(C)C [Compound 1.016] , what pIC50 is on record?
[reply] 7.30 to 8.30
